Reference source: patent US8178506B2

Measured TG by item
Tested on: differentiated adipocytes
Assay: Hallmark genes and triglycerides in differentiated adipocytes
Type: cell-based, human
Details: Table 28; differentiated adipocytes transfected day nine post-differentiation; 250 nM oligonucleotide
In the oligonucleotide strings, read from the 5' end, every base follows the letter of its sugar. An asterisk marks phosphorothioate; unmarked linkages are phosphodiester. Other units and linkages are bracketed, terminal groups are in braces. A string of capitals states the bases alone. e = 2'-O-(2-methoxyethyl) (MOE); [5mC] = 5-methylcytosine; d = 2'-deoxy (DNA)
MEASURED_ATTRIBUTE: TG

• 327901 (antisense eT*eG*eA*eG*e[5mC]*eT*eA*e[5mC]*eA*eG*eT*eG*e[5mC]*eT*eT*e[5mC]*eA*eT*e[5mC]*eT*e[5mC]*eA) [compound 327901] = 1.12
• 327888 (antisense eA*eA*eT*eG*e[5mC]*e[5mC]*e[5mC]*e[5mC]*eT*eA*eA*eA*eA*eA*eT*e[5mC]*e[5mC]*eT*eT*eA*eT) [compound 327888] = 1.13
• 340927 (antisense eT*eG*eA*eG*e[5mC]*dT*dA*d[5mC]*dA*dG*dT*dG*d[5mC]*dT*dT*e[5mC]*eA*eT*e[5mC]*eT*e[5mC]*eA) [compound 340927] = 1.61
• 328382 (e[5mC]*eA*eG*eA*e[5mC]*dT*d[5mC]*d[5mC]*d[5mC]*dA*dA*d[5mC]*dT*dG*dA*e[5mC]*e[5mC]*eA*eG*eA) [compound 328382] = 1.33
• 327905 (antisense e[5mC]*eA*eG*eA*e[5mC]*eT*e[5mC]*e[5mC]*eG*eG*eT*eG*eG*eA*eA*eT*eG*eA*eA*eG*eG*eA) [compound 327905] = 1.18
• 327913 (antisense eA*eA*e[5mC]*e[5mC]*eG*eA*eT*eT*eT*e[5mC]*eA*eA*eA*eT*eG*eG*eT*eG*e[5mC]*eT*eA*eG) [compound 327913] = 1.12
• 327922 (antisense eT*e[5mC]*eA*eG*eT*eT*eT*eT*eG*e[5mC]*eA*eT*eG*eG*eA*eT*eT*eT*eG*e[5mC]*eA*e[5mC]*eA) [compound 327922] = 1.48
• 327925 (antisense eT*eA*eG*e[5mC]*eT*eG*eG*eT*eT*eG*eA*eA*eG*eG*eG*eG*eA*e[5mC]*e[5mC]*eA*eA) [compound 327925] = 1.33
• 327934 (antisense eG*eG*eT*eA*e[5mC]*eA*eA*eT*e[5mC]*eA*eA*e[5mC]*eG*eG*eT*e[5mC]*eG*eA*eT*eG*eG*eT) [compound 327934] = 1.43
• 327941 (antisense eA*eA*e[5mC]*e[5mC]*e[5mC]*eA*e[5mC]*e[5mC]*eG*eA*e[5mC]*eA*eG*e[5mC]*eA*eA*eT*eG*eA*eA*eT*eG*eT*eT) [compound 327941] = 1.33
• 338664 (antisense e[5mC]*eA*eG*eA*e[5mC]*eT*e[5mC]*e[5mC]*e[5mC]*eA*eA*e[5mC]*eT*eG*eA*e[5mC]*e[5mC]*eA*eG*eA) [compound 338664] = 1.72
